Measured values drawn from ChEMBL document CHEMBL1201862 for this set.

system: UO-31; test: NCI tumour cell line growth inhibition, 48 h
Active and inactive are the calls of the source. Cut-off read from the data, not from the text of the source: active = GI50 up to about 1.1 µM and inactive = higher.
The reply should be one of these categories: active, inactive

Please review the entries below; each comes with its answer.
1) CC/C(=N\NC(=O)c1cccnc1)c1ccc2c(c1)OCCO2 ... inactive
2) COC(=O)c1ccccc1CC1Cc2cccc(C)c2C1=O (configuration not stated) ... inactive
3) Cn1c(NNc2ccccc2)cc(=O)[nH]c1=O ... inactive
4) CC1(CCC2C=CCC2)CCCNC1=S (configuration not stated) ... inactive
5) Nc1nc(Cl)c(/C=N\O)c(NCC2(CO)CC(=O)C2)n1 ... inactive

Challenge: Lab log entry: `COC(=O)/C=C\C(C#N)(C#N)/N=C/c1ccc(Br)s1` — outcome as called in the assay?
Response given: inactive

Challenge: Lab log entry: `C/C(=N\Nc1nc2ccccc2[nH]1)c1ccncn1` — outcome as called in the assay?
Response given: active

Challenge: Lab log entry: `O=C(NN=C(c1ccccc1)c1ccccc1)/C(O)=C/C(=O)c1ccc(Cl)cc1` — outcome as called in the assay?
Response given: inactive

Challenge: Lab log entry: `O=C(O)CNCCc1ccccc1` — outcome as called in the assay?
Response given: inactive

Challenge: Lab log entry: `c1ccc2c(c1)[nH]c1c2cc[n+]2cc3c(cc12)CCCC3` — outcome as called in the assay?
Response given: inactive

Challenge: Lab log entry: `[O-]/[N+](=N/c1ncc(-c2ccccc2)cn1)c1ncc(-c2ccccc2)cn1` — outcome as called in the assay?
Response given: inactive

Challenge: Lab log entry: `Cc1ccc2occ/c(=N\Nc3ccccc3)c2c1` — outcome as called in the assay?
Response given: inactive

Challenge: Lab log entry: Cc1cc(O)c(C(=O)CC2(O)C(=O)Nc3c(Cl)cc(Cl)cc32)c(=O)o1 (configuration not stated) — outcome as called in the assay?
Response given: inactive

Challenge: Lab log entry: `CC1=C2C(=O)O[C@@H](c3ccoc3)[C@]2(C)CCC1` — outcome as called in the assay?
Response given: inactive
